TARGET_UNDER_TEST: ΔSHP2 (Homo sapiens, UniProt Q06124)
Sequence (Q06124 205-593): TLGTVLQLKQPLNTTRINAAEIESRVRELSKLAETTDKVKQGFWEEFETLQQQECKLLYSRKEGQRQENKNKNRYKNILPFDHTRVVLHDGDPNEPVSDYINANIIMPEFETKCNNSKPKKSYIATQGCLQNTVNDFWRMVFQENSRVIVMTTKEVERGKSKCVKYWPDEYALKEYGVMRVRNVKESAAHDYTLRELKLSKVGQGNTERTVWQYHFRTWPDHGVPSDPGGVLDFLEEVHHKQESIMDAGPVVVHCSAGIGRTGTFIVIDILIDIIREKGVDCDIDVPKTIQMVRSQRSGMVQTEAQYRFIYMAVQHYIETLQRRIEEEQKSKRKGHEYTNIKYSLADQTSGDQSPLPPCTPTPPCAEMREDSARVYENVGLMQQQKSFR
pIC50: −log10 of the molar value.

{"columns": ["SMI", "pIC50"],
 "data": [
  ["CC1(C)CCC2=C(O1)c1ccccc1C(=O)C2=O", 4.47],
  ["Cc1cc2c(C(C)C)c(O)c(O)c(C=O)c2c(O)c1-c1c(C)cc2c(C(C)C)c(O)c(O)c(C=O)c2c1O", 4.40],
  ["O=C1Nc2ccc(I)cc2/C1=C/c1cc(Br)c(O)c(Br)c1", 4.47],
  ["CCCCCCCCCCCC1=C(O)C(=O)C=C(O)C1=O", 4.98],
  ["CC1=NN(c2ccc(C)c(C)c2)C(=O)/C1=N\\Nc1cccc(-c2cccc(C(=O)O)c2)c1O", 4.66],
  ["CC1(C)CCC(CN2CCN(c3ccc(C(=O)NS(=O)(=O)c4ccc(NCC5CCOCC5)c([N+](=O)[O-])c4)c(Oc4cnc5[nH]ccc5c4)c3)CC2)=C(c2ccc(Cl)cc2)C1", 5.69],
  ["CC(C)=CCC[C@]1(C)C=Cc2c(O)c3c(c(CC=C(C)C)c2O1)O[C@]12C(=C[C@@H]4C[C@H]1C(C)(C)O[C@@]2(C/C=C(/C)C(=O)O)C4=O)C3=O", 4.93]
]}
